Would you kindly list pIC50 for each of these substances?
system: porcine DPP-IV (Sus scrofa, UniProt P22411)
Construct: purchased Sigma Chemical Co. (St. Louis, MO, USA)
Sequence (P22411 whole entry): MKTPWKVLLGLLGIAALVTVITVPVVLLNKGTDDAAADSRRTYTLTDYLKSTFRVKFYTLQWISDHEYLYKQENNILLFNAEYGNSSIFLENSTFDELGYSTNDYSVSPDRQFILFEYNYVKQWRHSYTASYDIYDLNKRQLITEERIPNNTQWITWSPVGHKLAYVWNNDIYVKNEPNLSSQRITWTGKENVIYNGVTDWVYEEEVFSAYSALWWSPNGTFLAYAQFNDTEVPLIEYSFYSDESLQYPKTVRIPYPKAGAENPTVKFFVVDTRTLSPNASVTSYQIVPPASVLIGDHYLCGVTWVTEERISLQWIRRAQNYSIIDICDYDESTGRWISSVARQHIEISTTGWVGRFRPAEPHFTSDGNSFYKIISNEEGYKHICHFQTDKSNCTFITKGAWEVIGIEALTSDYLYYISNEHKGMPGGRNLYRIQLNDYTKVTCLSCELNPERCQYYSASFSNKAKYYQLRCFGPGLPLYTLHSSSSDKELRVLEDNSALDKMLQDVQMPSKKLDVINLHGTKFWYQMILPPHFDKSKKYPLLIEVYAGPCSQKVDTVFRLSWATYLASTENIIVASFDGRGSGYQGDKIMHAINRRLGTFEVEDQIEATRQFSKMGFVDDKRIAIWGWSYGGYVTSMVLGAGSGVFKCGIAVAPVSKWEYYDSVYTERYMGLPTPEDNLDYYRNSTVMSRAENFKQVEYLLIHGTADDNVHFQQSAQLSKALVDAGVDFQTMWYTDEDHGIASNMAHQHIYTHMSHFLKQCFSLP
test-name: DPP-IV inhibitory activity assay (Gly-Pro-p-nitroanilide substrate, absorbance 405 nm)
Assay type: biochemical
reported-conditions: chemically synthesized peptides; diprotin A positive control
No end group written: not given here.
Just the number, please; pIC50 means minus log10 of the concentration in mol/L.

Value lookup for pIC50; key = FAGDDAPR [FAGDDAPR] 3.77

Value lookup for pIC50; key = FAGDDAPRA [FAGDDAPRA] 3.41

Value lookup for pIC50; key = LAPSTM [LAPSTM] 3.85
